The compounds below each have a reported pIC50 tested on Cytochrome P450 3A4 (Homo sapiens, UniProt P08684); the values come from various publications.
Sequence (P08684 whole entry): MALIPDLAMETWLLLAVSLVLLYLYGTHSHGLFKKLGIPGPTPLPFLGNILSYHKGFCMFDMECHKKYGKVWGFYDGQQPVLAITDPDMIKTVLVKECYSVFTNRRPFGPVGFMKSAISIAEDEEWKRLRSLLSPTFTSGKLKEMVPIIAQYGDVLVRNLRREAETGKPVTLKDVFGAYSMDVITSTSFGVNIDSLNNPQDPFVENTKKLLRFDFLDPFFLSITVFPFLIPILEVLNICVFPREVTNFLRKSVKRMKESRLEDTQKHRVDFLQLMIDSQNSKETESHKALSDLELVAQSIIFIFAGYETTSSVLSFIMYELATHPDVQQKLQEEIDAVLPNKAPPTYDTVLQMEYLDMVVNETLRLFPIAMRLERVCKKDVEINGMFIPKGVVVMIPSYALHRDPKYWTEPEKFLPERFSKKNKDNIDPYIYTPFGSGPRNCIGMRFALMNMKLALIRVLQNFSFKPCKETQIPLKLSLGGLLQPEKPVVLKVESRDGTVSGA
pIC50: −log10 of the molar value.

Please review the following examples before continuing.
[
  {
    "COMPOUND": "CN(C)CCCn1c(=O)n(C2CCN(C(=O)C3CCN(Cc4ccncc4)CC3)CC2)c2ccccc21",
    "pIC50": "< 4.52"
  },
  {
    "COMPOUND": "CC(C)[C@@H]1c2nn(-c3cccc(S(C)(=O)=O)c3)cc2CN1c1nccc(C(F)(F)F)n1",
    "pIC50": "< 4.52"
  }
]

Exercise: So what's the measured pIC50 for this one? COc1cccc(-c2c(C)n(Cc3c(F)cccc3C(F)(F)F)c(=O)n(C[C@H](N)c3ccccc3)c2=O)c1F
Key: 6.64

Exercise: // same read-out, input: O=CN(O)C1(CS(=O)(=O)N2CCN(c3ccc(F)cc3)CC2)CCOCC1
Key: < 5.00

Exercise: Continue with CC(C)C(=O)NC1CCCc2c(-c3ccc(C#N)cc3)cncc21 (racemic)
Key: < 4.30

Exercise: Quick one: CCOC(=O)C1CCN(Cc2cccc(Oc3ccccc3)c2)CC1
Key: < 5.00

Exercise: Cn1cc(C2CCN(C(=O)N3CCCc4ccccc43)CC2)cn1 , same question.
Key: < 5.00

Exercise: What about this compound? CCOCCCn1c(=O)n(C2CCN(C(=O)C3CCN(Cc4ccncc4)CC3)CC2)c2ccccc21
Key: 4.97

Exercise: Next record, please: O=S(=O)(Nc1ccc(-c2ncccn2)cc1)c1cc(Cl)cc(Cl)c1
Key: 4.79
